methodSummary: SAD study in healthy volunteers: PK in plasma, whole blood, red blood cells
Assay type: in vivo, human
conditionParameters: human, plasma, po, 50 mg, HV single oral 50 mg (Cohort 1); plasma; geometric mean; read-out: t1/2 (converted)
experimentalReadout: half-life (days)
A number alone suffices; assume days.

Any idea what half-life was measured for O=Cc1c(O)cccc1OC[C@@H]1COCCN1C(=O)c1cccnc1CCO ? 28.7

* * *

methodSummary: SAD study in healthy volunteers: PK in plasma, whole blood, red blood cells
Type: in vivo, human
conditionParameters: human, plasma, po, 2200 mg, HV single oral 2200 mg (Cohort 8); plasma; geometric mean; read-out: AUClast
experimentalReadout: AUC(0-t) (µg·h/mL)
A number alone suffices; assume µg·h/mL.

Any idea what AUC(0-t) was measured for O=Cc1c(O)cccc1OC[C@@H]1COCCN1C(=O)c1cccnc1CCO ? 1360

* * *

methodSummary: SAD study in healthy volunteers: PK in plasma, whole blood, red blood cells
Type: in vivo, human
conditionParameters: human; HV single oral 800 mg (Cohort 6); plasma; median
experimentalReadout: Tmax (h)
A number alone suffices; assume h.

Any idea what Tmax was measured for O=Cc1c(O)cccc1OC[C@@H]1COCCN1C(=O)c1cccnc1CCO ? 2.5

* * *

methodSummary: SAD study in healthy volunteers: PK in plasma, whole blood, red blood cells
Type: in vivo, human
conditionParameters: human, whole blood, po, 50 mg, HV single oral 50 mg (Cohort 1); whole blood; geometric mean; read-out: t1/2 (converted)
experimentalReadout: half-life (days)
A number alone suffices; assume days.

Any idea what half-life was measured for O=Cc1c(O)cccc1OC[C@@H]1COCCN1C(=O)c1cccnc1CCO [Compound I] ? 28.5

* * *

methodSummary: SAD study in healthy volunteers: PK in plasma, whole blood, red blood cells
Assay type: in vivo, human
conditionParameters: human, red blood cells, po, 200 mg, HV single oral 200 mg (Cohort 3); red blood cells (calculated conc.); geometric mean
Description: To evaluate the safety and tolerability of single ascending doses of Compound I, 48 healthy volunteers (42 in the fasted state and 6 in the fed state) aged 18 to 55 years old were administered single ascending doses (50 mg to 2200 mg) of Compound I, while 16 healthy volunteers (14 in the fasted state and 2 in the fed state) aged 18 to 55 years old were administered placebo in a double blind, randomized, sequential manner. […]
experimentalReadout: Cmax (µg/mL)
A number alone suffices; assume µg/mL.

Any idea what Cmax was measured for O=Cc1c(O)cccc1OC[C@@H]1COCCN1C(=O)c1cccnc1CCO [Compound I] ? 76.9

* * *

methodSummary: SAD study in healthy volunteers: PK in plasma, whole blood, red blood cells
Type: in vivo, human
conditionParameters: human, red blood cells, po, 1400 mg, HV single oral 1400 mg (Cohort 7); red blood cells (calculated conc.); geometric mean; read-out: t1/2 (converted)
Procedure: To evaluate the safety and tolerability of single ascending doses of Compound I, 48 healthy volunteers (42 in the fasted state and 6 in the fed state) aged 18 to 55 years old were administered single ascending doses (50 mg to 2200 mg) of Compound I, while 16 healthy volunteers (14 in the fasted state and 2 in the fed state) aged 18 to 55 years old were administered placebo in a double blind, randomized, sequential manner. […]
experimentalReadout: half-life (days)
A number alone suffices; assume days.

Any idea what half-life was measured for O=Cc1c(O)cccc1OC[C@@H]1COCCN1C(=O)c1cccnc1CCO ? 27.4

* * *

methodSummary: SCD cohort PK after repeated dosing
Format: in vivo, human
conditionParameters: human, plasma, 150 mg, MAD-3 (150 mg QD) week 6, SCD patient 0003 (did not adhere to regimen); read-out: Plasma (Cmax) Concentration
experimentalReadout: Cmax
Report as: number unit

Any idea what Cmax was measured for O=Cc1c(O)cccc1OC[C@@H]1COCCN1C(=O)c1cccnc1CCO ? 1610 ng/mL

* * *

methodSummary: MAD study in healthy volunteers: whole blood and plasma PK
Assay type: in vivo, human
conditionParameters: human; HV MAD Day 14, 75 mg QD maintenance; whole blood; read-out: Cmin
experimentalReadout: concentration at 14 day (µg/mL)
A number alone suffices; assume µg/mL.

Any idea what concentration at 14 day was measured for O=Cc1c(O)cccc1OC[C@@H]1COCCN1C(=O)c1cccnc1CCO ? 297

* * *

methodSummary: MAD study in healthy volunteers: whole blood and plasma PK
Assay type: in vivo, human
conditionParameters: human; HV MAD Day 14, 50 mg QD maintenance (loading 500/400/400 mg); whole blood
experimentalReadout: Cmax (µg/mL)
A number alone suffices; assume µg/mL.

Any idea what Cmax was measured for O=Cc1c(O)cccc1OC[C@@H]1COCCN1C(=O)c1cccnc1CCO ? 236

* * *

methodSummary: SAD study in healthy volunteers: PK in plasma, whole blood, red blood cells
Format: in vivo, human
conditionParameters: human, plasma, po, 400 mg, HV single oral 400 mg (Cohort 5); plasma; geometric mean; read-out: AUClast
experimentalReadout: AUC(0-t) (µg·h/mL)
A number alone suffices; assume µg·h/mL.

Any idea what AUC(0-t) was measured for O=Cc1c(O)cccc1OC[C@@H]1COCCN1C(=O)c1cccnc1CCO [Compound I] ? 331

* * *

methodSummary: SAD study in healthy volunteers: PK in plasma, whole blood, red blood cells
Assay type: in vivo, human
conditionParameters: human, red blood cells, po, 2200 mg, HV single oral 2200 mg (Cohort 8); red blood cells (calculated conc.); geometric mean; read-out: t1/2 (converted)
experimentalReadout: half-life (days)
A number alone suffices; assume days.

Any idea what half-life was measured for O=Cc1c(O)cccc1OC[C@@H]1COCCN1C(=O)c1cccnc1CCO ? 24.6

* * *

methodSummary: SAD study in healthy volunteers: PK in plasma, whole blood, red blood cells
Assay type: in vivo, human
conditionParameters: human, whole blood, 200 mg, HV single 200 mg; whole blood; mean; read-out: t1/2 (converted)
experimentalReadout: half-life
Report as: number unit

Any idea what half-life was measured for O=Cc1c(O)cccc1OC[C@@H]1COCCN1C(=O)c1cccnc1CCO ? 28.4 days

* * *

methodSummary: SAD study in healthy volunteers: PK in plasma, whole blood, red blood cells
Assay type: in vivo, human
conditionParameters: human, whole blood, 50 mg, HV single 50 mg; whole blood; mean; read-out: t1/2 (converted)
experimentalReadout: half-life (days)
A number alone suffices; assume days.

Any idea what half-life was measured for O=Cc1c(O)cccc1OC[C@@H]1COCCN1C(=O)c1cccnc1CCO ? 28.9

* * *

methodSummary: SAD study in healthy volunteers: PK in plasma, whole blood, red blood cells
Format: in vivo, human
conditionParameters: human, whole blood and plasma, HV, dose range of 50 to 2200 mg; read-out: mean blood to plasma ratio for AUCinf
Protocol: To evaluate the safety and tolerability of single ascending doses of Compound I, 48 healthy volunteers (42 in the fasted state and 6 in the fed state) aged 18 to 55 years old were administered single ascending doses (50 mg to 2200 mg) of Compound I, while 16 healthy volunteers (14 in the fasted state and 2 in the fed state) aged 18 to 55 years old were administered placebo in a double blind, randomized, sequential manner. […]
experimentalReadout: blood plasma ratio

Any idea what blood plasma ratio was measured for O=Cc1c(O)cccc1OC[C@@H]1COCCN1C(=O)c1cccnc1CCO ? 177 to 219

* * *

methodSummary: SAD study in healthy volunteers: PK in plasma, whole blood, red blood cells
Assay type: in vivo, human
conditionParameters: human; HV single oral 2200 mg (Cohort 8); whole blood; geometric mean
experimentalReadout: AUC(0-inf) (µg·h/mL)
A number alone suffices; assume µg·h/mL.

Any idea what AUC(0-inf) was measured for O=Cc1c(O)cccc1OC[C@@H]1COCCN1C(=O)c1cccnc1CCO ? 282000

* * *

methodSummary: SAD study in healthy volunteers: PK in plasma, whole blood, red blood cells
Assay type: in vivo, human
conditionParameters: human; HV single 2200 mg; whole blood; median
experimentalReadout: Tmax (h)
A number alone suffices; assume h.

Any idea what Tmax was measured for O=Cc1c(O)cccc1OC[C@@H]1COCCN1C(=O)c1cccnc1CCO [Compound I] ? 24

* * *

methodSummary: MAD study in healthy volunteers: whole blood and plasma PK
Format: in vivo, human
conditionParameters: human; HV MAD Day 14, 25 mg QD maintenance; whole blood; read-out: AUC0-24
experimentalReadout: AUC(0-t) (µg·h/mL)
A number alone suffices; assume µg·h/mL.

Any idea what AUC(0-t) was measured for O=Cc1c(O)cccc1OC[C@@H]1COCCN1C(=O)c1cccnc1CCO ? 3090

* * *

methodSummary: SAD study in healthy volunteers: PK in plasma, whole blood, red blood cells
Assay type: in vivo, human
conditionParameters: human; HV single oral 2200 mg (Cohort 8); whole blood; median
experimentalReadout: Tmax (h)
A number alone suffices; assume h.

Any idea what Tmax was measured for O=Cc1c(O)cccc1OC[C@@H]1COCCN1C(=O)c1cccnc1CCO ? 24

* * *

methodSummary: MAD study in healthy volunteers: whole blood and plasma PK
Format: in vivo, human
conditionParameters: human; HV MAD Day 14, 15 mg QD maintenance; whole blood; read-out: AUC0-24
experimentalReadout: AUC(0-t) (µg·h/mL)
A number alone suffices; assume µg·h/mL.

Any idea what AUC(0-t) was measured for O=Cc1c(O)cccc1OC[C@@H]1COCCN1C(=O)c1cccnc1CCO ? 2840

Values were extracted from patent US20250041312A1.
